Data credit: ChEMBL document CHEMBL1156883

Target system: Myelin-associated glycoprotein (Mus musculus) (UniProt P20917)
Sequence (P20917 whole entry): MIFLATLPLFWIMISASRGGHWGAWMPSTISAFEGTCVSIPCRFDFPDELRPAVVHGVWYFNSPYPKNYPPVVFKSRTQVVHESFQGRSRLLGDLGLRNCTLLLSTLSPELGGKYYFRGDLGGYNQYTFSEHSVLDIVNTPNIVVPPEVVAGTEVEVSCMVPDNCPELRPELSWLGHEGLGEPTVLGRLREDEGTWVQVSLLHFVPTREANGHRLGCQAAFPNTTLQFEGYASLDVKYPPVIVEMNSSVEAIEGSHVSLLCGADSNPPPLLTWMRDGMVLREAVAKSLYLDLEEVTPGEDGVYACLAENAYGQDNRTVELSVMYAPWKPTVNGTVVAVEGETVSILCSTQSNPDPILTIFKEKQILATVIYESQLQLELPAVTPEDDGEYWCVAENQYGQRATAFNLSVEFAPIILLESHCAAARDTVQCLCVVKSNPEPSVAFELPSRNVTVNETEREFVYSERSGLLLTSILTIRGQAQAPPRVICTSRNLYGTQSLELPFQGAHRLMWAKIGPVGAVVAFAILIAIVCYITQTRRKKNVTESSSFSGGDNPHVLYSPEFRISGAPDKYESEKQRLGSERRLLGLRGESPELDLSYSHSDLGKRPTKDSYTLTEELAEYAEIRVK
Method description: Inhibition of mouse MAGd1-3Fc expressed in CHO-Lec 3.2.8.1 cells by hepten inhibition assay relative to sodium-(2R,4S,5R,6R)-5-acetamido-2-(benzyloxy)-6-((1S,2R)-3-(4-chlorobenzamido)-1,2-dihydroxypropyl)-4-hydroxytetrahydro-2H-pyran-2-carboxylate
Format: cell-based
Quantity kind: Ratio
When you answer, write just the number.

Illustrative cases are given below, each with its answer.
| Smiles data | Quantity kind | Value |
| --- | --- | --- |
| O=C(CF)N[C@H]1[C@H]([C@@H](O)[C@H](O)CNC(=O)c2ccc(Cl)cc2)O[C@@](OCc2cccc(F)c2F)(C(=O)O)C[C@@H]1O | Ratio | 0.02 |
| CS(=O)(=O)N[C@H]1[C@H]([C@@H](O)[C@H](O)CNC(=O)c2ccc(Cl)cc2)O[C@@](OCc2cccc(F)c2F)(C(=O)O)C[C@@H]1O | Ratio | 0.6 |
| O=C(NC[C@@H](O)[C@H](O)[C@@H]1O[C@@](OCc2cccc(F)c2F)(C(=O)O)C[C@H](O)[C@H]1NC(=O)C1CC1)c1ccc(Cl)cc1 | Ratio | 0.1 |

Q. What value of Ratio has been reported for the following molecule? O=C(CCl)N[C@H]1[C@H]([C@@H](O)[C@H](O)CNC(=O)c2ccc(Cl)cc2)O[C@@](OCc2cccc(F)c2F)(C(=O)O)C[C@@H]1O
A. 0.07

Q. Entry to check: CC(=O)N[C@H]1[C@H]([C@@H](O)[C@H](O)CNC(=O)c2ccc(Cl)cc2)O[C@@](OCc2ccc(Cl)cc2)(C(=O)O)C[C@@H]1O
A. 1.3

Q. Here is the next molecule: CC(=O)N[C@H]1[C@H]([C@@H](O)[C@H](O)CNC(=O)c2ccccc2)O[C@@](OCc2ccccc2)(C(=O)O)C[C@@H]1O
A. 1.5

----------
Target system: Myelin-associated glycoprotein (Mus musculus, UniProt P20917)
Method description: Binding affinity to mouse MAGd1-3Fc expressed in CHO-Lec 3.2.8.1 cells by SPR analysis
Quantity kind: Kd (µM)
Please give a number only; it is taken to be in µM.

Take a look at these entries with their results.
| Smiles data | Value |
| --- | --- |
| CC(=O)N[C@H]1[C@H]([C@@H](O)[C@H](O)CNC(=O)c2ccc(Cl)cc2)O[C@@](OCc2cccc(F)c2F)(C(=O)O)C[C@@H]1O | 2.4 |
| COCC(=O)N[C@H]1[C@H]([C@@H](O)[C@H](O)CNC(=O)c2ccc(Cl)cc2)O[C@@](OCc2cccc(F)c2F)(C(=O)O)C[C@@H]1O | 2.3 |
| CC(=O)N[C@H]1[C@H]([C@@H](O)[C@H](O)CNC(=O)c2cccc(Cl)c2)O[C@@](OCc2ccccc2)(C(=O)O)C[C@@H]1O | 33.9 |
| O=C(CCl)N[C@H]1[C@H]([C@@H](O)[C@H](O)CNC(=O)c2ccc(Cl)cc2)O[C@@](OCc2cccc(F)c2F)(C(=O)O)C[C@@H]1O | 2.1 |
| CC(=O)N[C@H]1[C@H]([C@@H](O)[C@H](O)CNC(=O)c2ccc(Cl)cc2)O[C@@](OCc2ccc(Cl)cc2)(C(=O)O)C[C@@H]1O | 15 |
| CC(=O)N[C@H]1[C@H]([C@@H](O)[C@H](O)CNC(=O)c2ccc(Cl)cc2)O[C@@](OCc2c(F)c(F)c(F)c(F)c2F)(C(=O)O)C[C@@H]1O | 6.1 |

Q. Quick check: Kd of O=C(O)N[C@H]1[C@H]([C@H](O)[C@H](O)CNC(=O)c2ccc(Cl)cc2)O[C@@](O[C@H]2[C@@H](O)[C@@H](CO)O[C@@H](O[C@@H]3CCO[C@H](COCc4ccc(-c5ccccc5)cc4)[C@@H]3O)[C@@H]2O)(C(=O)O)C[C@@H]1O ?
A. 2.83

Q. One more molecule: CC(=O)N[C@H]1[C@H]([C@@H](O)[C@H](O)CNC(=O)c2ccc(Cl)cc2)O[C@@](OCc2cccc(Cl)c2Cl)(C(=O)O)C[C@@H]1O
A. 4.3

Q. Now the same for O=C(NC[C@@H](O)[C@H](O)[C@@H]1O[C@@](OCc2cccc(F)c2F)(C(=O)O)C[C@H](O)[C@H]1NC(=O)C1CCC1)c1ccc(Cl)cc1
A. 5.8

Q. Input O=C(NC[C@@H](O)[C@H](O)[C@@H]1O[C@@](OCc2cccc(F)c2F)(C(=O)O)C[C@H](O)[C@H]1NC(=O)C1CC1)c1ccc(Cl)cc1
A. 4.1

Q. How about O=C(NC[C@@H](O)[C@H](O)[C@@H]1O[C@@](OCc2cccc(F)c2F)(C(=O)O)C[C@H](O)[C@H]1NS(=O)(=O)c1ccccc1[N+](=O)[O-])c1ccc(Cl)cc1 ?
A. 1.4

Q. What about this molecule? CS(=O)(=O)N[C@H]1[C@H]([C@@H](O)[C@H](O)CNC(=O)c2ccc(Cl)cc2)O[C@@](OCc2cccc(F)c2F)(C(=O)O)C[C@@H]1O
A. 17

Q. Try this molecule too: CO[C@]1(C(=O)O)C[C@H](O)[C@@H](NC(C)=O)[C@H]([C@@H](O)[C@H](O)CNC(=O)c2ccccc2)O1
A. 137

Q. Another molecule to check: CC(=O)N[C@H]1[C@H]([C@@H](O)[C@H](O)CNC(=O)c2ccc(Cl)cc2)O[C@@](OCc2ccc3ccccc3c2)(C(=O)O)C[C@@H]1O
A. 11.6

Q. What do you have for CC(=O)N[C@H]1[C@H]([C@@H](O)[C@H](O)CNC(=O)c2ccccc2)O[C@@](OCc2ccccc2)(C(=O)O)C[C@@H]1O ?
A. 26

Q. Now consider O=C(CF)N[C@H]1[C@H]([C@@H](O)[C@H](O)CNC(=O)c2ccc(Cl)cc2)O[C@@](OCc2cccc(F)c2F)(C(=O)O)C[C@@H]1O and answer again.
A. 0.5

Q. Consider next the molecule CC(=O)N[C@H]1[C@H]([C@@H](O)[C@H](O)CNC(=O)c2ccc(Cl)cc2)O[C@@](OCc2ccccc2)(C(=O)O)C[C@@H]1O in the same way.
A. 17

Q. Again, but for CC(=O)N[C@H]1[C@H]([C@@H](O)[C@H](O)CNC(=O)c2ccc(Cl)cc2)O[C@@](OCc2ccc(F)cc2)(C(=O)O)C[C@@H]1O
A. 13

Q. Moving on to the next molecule: CC(=O)N[C@H]1[C@H]([C@@H](O)[C@H](O)CNC(=O)c2ccc(Cl)c(Cl)c2)O[C@@](OCc2ccccc2)(C(=O)O)C[C@@H]1O
A. 19.2

Q. Same question for CC(=O)N[C@H]1[C@H]([C@@H](O)[C@H](O)CNC(=O)c2ccccc2)O[C@@](OCc2c[nH]nn2)(C(=O)O)C[C@@H]1O please.
A. 11.7

----------
Method description: Stability in artificial cerebrospinal fluid at 37 degC […]
Assay type: physicochemical
Condition set: read-out: Stability
Quantity kind: remaining (%)
Give just the number in %; leave the unit off.

| Smiles data | remaining (%) |
| --- | --- |
| CC(=O)N[C@H]1[C@H]([C@@H](O)[C@H](O)CNC(=O)c2ccc(Cl)cc2)O[C@@](OCc2cccc(F)c2F)(C(=O)O)C[C@@H]1O | 95 |

Switching to the query record.
Q. Request the reported remaining associated with O=C(CF)N[C@H]1[C@H]([C@@H](O)[C@H](O)CNC(=O)c2ccc(Cl)cc2)O[C@@](OCc2cccc(F)c2F)(C(=O)O)C[C@@H]1O
A. 95

----------
Target system: Myelin-associated glycoprotein (Mus musculus) (UniProt P20917)
Method description: Inhibition of mouse MAGd1-3Fc expressed in CHO-Lec 3.2.8.1 cells by hepten inhibition assay relative to sodium-(2R,4S,5R,6R)-5-acetamido-2-(benzyloxy)-6-((1S,2R)-3-(4-chlorobenzamido)-1,2-dihydroxypropyl)-4-hydroxytetrahydro-2H-pyran-2-carboxylate
Type: cell-based
Hi, to clarify the labels: 1 covers Ratio from 0.3 upward, 0 covers anything below 0.3.

| Smiles data | Category |
| --- | --- |
| O=C(NC[C@@H](O)[C@H](O)[C@@H]1O[C@@](OCc2cccc(F)c2F)(C(=O)O)C[C@H](O)[C@H]1NS(=O)(=O)c1ccccc1[N+](=O)[O-])c1ccc(Cl)cc1 | 0 |

Q. Reported Ratio at or above 0.3? O=C(NC[C@@H](O)[C@H](O)[C@@H]1O[C@@](OCc2cccc(F)c2F)(C(=O)O)C[C@H](O)[C@H]1NC(=O)C1CCC1)c1ccc(Cl)cc1
A. 0

----------
Target system: Myelin-associated glycoprotein (Mus musculus)
Method description: Inhibition of mouse MAGd1-3Fc expressed in CHO-Lec 3.2.8.1 cells by hepten inhibition assay relative to sodium-(2R,4S,5R,6R)-5-acetamido-2-(benzyloxy)-6-((1S,2R)-3-(4-chlorobenzamido)-1,2-dihydroxypropyl)-4-hydroxytetrahydro-2H-pyran-2-carboxylate
Type: cell-based
Quantity kind: Ratio
// keep it numeric: no unit symbol after the value

Previously resolved entries follow.
| Smiles data | Target system | Value |
| --- | --- | --- |
| CC(=O)N[C@H]1[C@H]([C@@H](O)[C@H](O)CNC(=O)c2ccccc2)O[C@@](OCc2c[nH]nn2)(C(=O)O)C[C@@H]1O | Myelin-associated glycoprotein (Mus musculus) | 0.74 |
| CC(=O)N[C@H]1[C@H]([C@@H](O)[C@H](O)CNC(=O)c2ccc(Cl)cc2)O[C@@](OCc2c(F)c(F)c(F)c(F)c2F)(C(=O)O)C[C@@H]1O | Myelin-associated glycoprotein (Mus musculus) | 0.26 |
| O=C(O)N[C@H]1[C@H]([C@H](O)[C@H](O)CNC(=O)c2ccc(Cl)cc2)O[C@@](O[C@H]2[C@@H](O)[C@@H](CO)O[C@@H](O[C@@H]3CCO[C@H](COCc4ccc(-c5ccccc5)cc4)[C@@H]3O)[C@@H]2O)(C(=O)O)C[C@@H]1O | Myelin-associated glycoprotein (Mus musculus) | 0.52 |
| COCC(=O)N[C@H]1[C@H]([C@@H](O)[C@H](O)CNC(=O)c2ccc(Cl)cc2)O[C@@](OCc2cccc(F)c2F)(C(=O)O)C[C@@H]1O | Myelin-associated glycoprotein (Mus musculus) | 0.14 |

Q. What value of measured Ratio is listed for CC(=O)N[C@H]1[C@H]([C@@H](O)[C@H](O)CNC(=O)c2ccc(Cl)cc2)O[C@@](OCc2ccc3ccccc3c2)(C(=O)O)C[C@@H]1O ?
A. 0.74
